IC50: recorded values
target: UniProt P63224
Sequence (P63224 whole entry): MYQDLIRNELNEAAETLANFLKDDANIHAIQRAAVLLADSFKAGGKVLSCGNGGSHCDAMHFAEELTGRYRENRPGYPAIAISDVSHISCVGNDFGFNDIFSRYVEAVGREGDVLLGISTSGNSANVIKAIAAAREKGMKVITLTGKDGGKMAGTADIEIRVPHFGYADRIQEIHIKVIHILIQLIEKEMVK

CO[C@H]1OC([C@H](O)COP(=O)(O)O)[C@@H](O)C(O)C1O (stereo partly shown) [Example 1] | < 100 µM
O=P(O)(O)OC[C@@H](O)[C@H]1O[C@@](O)(CO)[C@@H](O)[C@@H](O)[C@@H]1O [Example 13] | < 100 µM
O=P(O)(O)OC[C@@H](O)[C@H]1O[C@H](F)[C@@H](O)[C@@H](O)[C@@H]1O [Example 6] | < 100 µM
O=P(O)(O)OC[C@@H](O)[C@H]1O[C@@H](CO)[C@@H](O)[C@@H](O)[C@@H]1O [Example 11] | < 100 µM
CCC[C@H]1O[C@H]([C@H](O)COP(=O)(O)O)[C@@H](O)[C@H](O)[C@@H]1O [Example 8] | < 100 µM
CC1(O)OC(C(O)COP(=O)(O)O)C(O)C(O)C1O (stereo not shown) [Example 12] | < 100 µM

# input for lookup
Lab request: please report IC50 under test system UniProt P63224 for CO[C@@H]1O[C@H]([C@H](O)COP(=O)(O)O)[C@@H](O)[C@H](O)[C@@H]1O [Example 3]
< 100 µM
